test: MMV: Cytotoxicity against human fibroblasts (MRC-5) cells.; conditions: MRC-5 cells (human fibroblasts)
pIC50: −log10 of the molar value.
Can you tell me pIC50 for the items I'm about to list?

Batch lookup, pIC50 per entry.
1. CCOc1cccc2sc(N(Cc3cccnc3)C(=O)C3CCCCC3)nc12
2. Cc1ccc2nc(C)cc(Nc3cccc(C(F)(F)F)c3)c2c1
3. COc1ccc(C=C2SC(Nc3ccc(F)cc3)=NC2=O)c(OC)c1
4. Cc1c(C)n(CC(O)CNC2CCCCC2C)c2ccccc12 (stereo unspecified)
5. Cc1ccc(-c2cc(C(=O)Nc3ccc(S(=O)(=O)N4CCCCC4)cc3)[nH]n2)c(O)c1

// result
["< 4.49", 4.54, "< 4.49", "< 4.49", "< 4.49"]

Batch lookup, pIC50 per entry.
1. CC(C)=CCN1CCC(C(=O)Nc2ccc(-c3nc4ccccc4[nH]3)cc2)CC1
2. CCOc1ccc(CCNC(=O)c2cccs2)cc1OCC
3. CCOc1ccc(/C=C/c2nc(=O)c3ccccc3o2)cc1
4. Cc1cc(NCCN2CCCCC2)c2ccc3ccccc3c2n1
5. COc1ccc(-c2cc3c(nn2)-c2ccccc2C3=O)cc1
6. CCOC(=O)c1cnc2c(C)cc(C)cc2c1Nc1ccc(OC)c(OC)c1

// result
1. < 4.49
2. < 4.49
3. < 4.49
4. 4.79
5. < 4.49
6. < 4.49
